Source listed as ChEMBL document CHEMBL1201862.

# Test system: PC-3
# measurement-description: NCI tumour cell line growth inhibition, 48 h
Active and inactive are the calls of the source. No stated cut-off is given here; in the data, active = GI50 up to about 1.1 µM and inactive = higher.
Listed here are compounds together with their documented GI50.
property: GI50

>  <compound>
COC(=O)CCC1=CCC2(SC)C(=O)Nc3cccc1c32 (configuration not stated)

>  <property>
GI50

>  <val>
> 100 µM (inactive)

$$$$
>  <compound>
CO/C(=N\N=C\c1ccc(C(F)(F)F)cc1)c1ccncc1

>  <property>
GI50

>  <val>
> 10 µM (inactive)

$$$$
>  <compound>
Cn1c(N=[N+]=[N-])cc(=O)n(C)c1=O

>  <property>
GI50

>  <val>
> 100 µM (inactive)

$$$$
>  <compound>
COc1ccc(N2C(=O)C(=O)C3(CCCCC3)C2=O)c(OC)c1OC

>  <property>
GI50

>  <val>
> 100 µM (inactive)

$$$$
>  <compound>
CC(C)Oc1c(N(Cc2ccccc2)c2ccccc2C2SCCCS2)c(=O)c1=O

>  <property>
GI50

>  <val>
3.29 µM (inactive)

$$$$
>  <compound>
CCOC(=O)c1nc2ccc(C(F)(F)F)cc2nc1NCc1ccc(OC)c(OC)c1

>  <property>
GI50

>  <val>
35.5 µM (inactive)

$$$$
>  <compound>
N#Cc1c(-c2ccccc2)[nH]c2ccccc2c1=O

>  <property>
GI50

>  <val>
> 100 µM (inactive)

$$$$
>  <compound>
C[n+]1c2ccccc2n2c3ccccc3c(NCCCn3ccnc3)c(C#N)c21

>  <property>
GI50

>  <val>
2.02 µM (inactive)

$$$$
>  <compound>
CCOC(=O)c1c(N)sc2c1C(C(=O)OCC)CCCC2 (configuration not stated)

>  <property>
GI50

>  <val>
32.9 µM (inactive)

$$$$
>  <compound>
O=C1COc2cc(N3CCN(c4cccc(C(F)(F)F)c4)CC3)ccc2N1

>  <property>
GI50

>  <val>
> 100 µM (inactive)

$$$$
>  <compound>
CCOC(=O)CCC(NC(=O)c1ccc(NCc2ccc3nc(-c4ccccc4)c(Cl)nc3c2)c2ccccc12)C(=O)OCC (configuration not stated)

>  <property>
GI50

>  <val>
> 100 µM (inactive)

$$$$
>  <compound>
Oc1c(OCc2nnc(CCCCCCCCc3nnc(COc4ccc5ccccc5c4O)o3)o2)ccc2ccccc12

>  <property>
GI50

>  <val>
> 100 µM (inactive)

$$$$
